- method.summary: Water-solubility at 1 wt. % in distilled water
- Type: physicochemical
- assay.conditions: Table 17
readout.kind: solubility (in Material Type)

smiles.representation: CCO[Si](C)(CCCN)OCC
recorded.result: silane (soluble)
--
smiles.representation: CCO[Si](CCCNCCN)(OCC)OCC
recorded.result: silane (soluble)

====

- method.summary: Water-solubility at 1 wt. % in distilled water
- Assay type: physicochemical
- assay.conditions: 1 wt. % in ~pH7 distilled water at RT; clear = soluble, turbid = insoluble
readout.kind: water-solubility

smiles.representation: CCO[Si](CCCN1CCC[Si]1(OCC)OCC)(OCC)OCC
readout.kind: water-solubility
recorded.result: insoluble
//
smiles.representation: CCO[Si](CCCNCCN)(OCC)OCC
readout.kind: water-solubility
recorded.result: water soluble
//
smiles.representation: CCO[Si](C)(C)CCCN
readout.kind: water-solubility
recorded.result: water soluble
//
smiles.representation: CCO[Si](CCCNCCC[Si](OCC)(OCC)OCC)(OCC)OCC
readout.kind: water-solubility
recorded.result: insoluble
